B1: LINE1-full (parent)
chain: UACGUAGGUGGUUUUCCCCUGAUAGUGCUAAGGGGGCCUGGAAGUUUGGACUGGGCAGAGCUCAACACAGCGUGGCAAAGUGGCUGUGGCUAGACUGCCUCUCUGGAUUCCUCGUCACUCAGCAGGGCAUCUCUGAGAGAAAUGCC

Variants of: B1
Experiment: self-cleavage, relative activity (ratio to wild type); higher = more cleavage; in vitro, sequencing; the parent is a self-cleaving ribozyme
Threshold check on self-cleavage: at or above 0.7 gives rule met, strictly below gives rule not met.

• C95A A136U = rule not met

Challenge: Check the entry G34U U108C : does self-cleavage equal or exceed 0.7?
Response given: rule met

Challenge: Check the entry U47A G53A : does self-cleavage equal or exceed 0.7?
Response given: rule met

Challenge: Check the entry G53U U112C : does self-cleavage equal or exceed 0.7?
Response given: rule met

Challenge: Check the entry G58C A124U : does self-cleavage equal or exceed 0.7?
Response given: rule not met
